Assay: NCI Yeast Anticancer Drug Screen. Data for the rad50 strain (AID 155);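 note: 0% = growth of vehicle-only cultures of the same strain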
Conditions: S. cerevisiae rad50 strain growth inhibition; at 50.0 µM (retest, dose inferred, filed as 5.0)
This is part of a sample that, as a whole, favours compounds with a hit. Of some 79,000 tested, about 15% had one in any assay. Activity calls are given as the source filed them. Cut-off read from the data, not from the text of the source: active = growth inhibition above about 70%; inactive = the rest.
Classes used: label 1 for active, label 0 for inactive

{"MOLECULE": "C=C(C(=C)n1nnc(C(=O)OC)c1C(=O)OC)n1nnc(C(=O)OC)c1C(=O)OC", "CLASS": "label 0"}
{"MOLECULE": "O=[N+]([O-])/C=C/c1cc(Cl)c(/C=C/[N+](=O)[O-])cc1Cl", "CLASS": "label 0"}
{"MOLECULE": "CCc1c[n+]([O-])c(C)cc1[N+](=O)[O-]", "CLASS": "label 1"}
{"MOLECULE": "CCCCCCSc1ncnc2[nH]ncc12", "CLASS": "label 0"}
{"MOLECULE": "O=C1C(Br)=C(c2ccccc2)O/C1=C/C(=O)c1ccc(Br)cc1", "CLASS": "label 0"}
{"MOLECULE": "CC(C)C(C)/C=C\\C(C)C1CCC2C3=CC=C4CC(O)CCC4(C)C3CCC21C (stereo not given)", "CLASS": "label 1"}
{"MOLECULE": "Cc1cccc(/C=N/NC(=S)N2CCCC2)n1", "CLASS": "label 1"}
{"MOLECULE": "OC(CCNCc1ccccc1)c1ccc2ccccc2c1 (stereo not given)", "CLASS": "label 1"}
{"MOLECULE": "COc1cc2ccnc(-c3c4ccccc4c(N)c4c(OC)c(OC)ccc34)c2cc1OC", "CLASS": "label 1"}
{"MOLECULE": "Cc1ccc(NC(=O)/C(CC2N=c3c(ccc4c(O)c5ccccc5c(O)c34)=NC2O)=N/NC(C)(C)C)cc1 (stereo not given)", "CLASS": "label 0"}

====

Assay: NCI Yeast Anticancer Drug Screen. Data for the bub3 strain (AID 167)
Details: S. cerevisiae bub3 mutant strain, at 11.0 µM
This is part of a sample that, as a whole, favours compounds with a hit. Of some 79,000 tested, about 15% had one in any assay. Activity calls are given as the source filed them. No stated cut-off is given here; in the data, active means growth inhibition above about 70%; inactive means the rest.
Classes used: label 1 (active), label 0 (inactive)

{"MOLECULE": "CCCCOCn1c(=O)[nH]c(=O)c2cc(Br)ccc21", "CLASS": "label 0"}
{"MOLECULE": "Cc1ccc(NC(c2ccccc2)c2ccc3cccnc3c2O)cc1 (stereo unspecified)", "CLASS": "label 0"}
{"MOLECULE": "CCOC(=O)[C@H]1Nc2ccc(OC)cc2C2c3ccccc3CC21 (stereo partly specified)", "CLASS": "label 0"}
{"MOLECULE": "CN(C)Cc1cc(N=Nc2ccc(Cl)cc2)ccc1OC(=O)c1ccccc1", "CLASS": "label 0"}
{"MOLECULE": "COC(=O)C1=C(C(=O)OC)C(C(=O)OC)C(C(=O)OC)C(C(=O)OC)(C(=O)OC)C(C(=O)OC)=C1C(=O)OC (stereo unspecified)", "CLASS": "label 0"}
{"MOLECULE": "COc1cc(CSc2ccc(O)cc2)cc(O)c1O", "CLASS": "label 0"}
{"MOLECULE": "CCCCCCN(CCCCCC)CC(O)c1ccnc2ccc(OC)cc12 (stereo unspecified)", "CLASS": "label 0"}
{"MOLECULE": "O=C(O)C1CC(c2ccccc2)=NN1c1ccccc1 (stereo unspecified)", "CLASS": "label 0"}
{"MOLECULE": "CN(C)N=Nc1ccccc1C(=O)NC#N", "CLASS": "label 1"}
{"MOLECULE": "CC[n+]1oc(C(=O)c2ccc(Cl)cc2)c(-c2ccccc2)c1-c1ccccc1.[Cl][Fe]([Cl])([Cl])[Cl]", "CLASS": "label 0"}
{"MOLECULE": "O=P(NC1CCCCC1)(OCc1ccccc1)OCc1ccccc1", "CLASS": "label 0"}

====

Assay: NCI Yeast Anticancer Drug Screen. Data for the mec2-1 strain (AID 157)
Settings: S. cerevisiae mec2-1 strain, at 33.0 µM
Compounds without any hit were thinned out: in the full panel of roughly 79,000, 15% have a hit. The source made the active and inactive calls. Cut-off read from the data, not from the text of the source: active = growth inhibition above about 70%; inactive = the rest.
Classes used: t (active), f (inactive)

{"MOLECULE": "O=C1CSC(c2cccc(Cl)c2)N1c1ccc(-c2ccc(-n3c(-c4ccccc4)nc4ccccc4c3=O)cc2)cc1 (configuration not stated)", "CLASS": "f"}
{"MOLECULE": "CN(C)CCNC(=O)c1cccc2c1Oc1c(cccc1[N+](=O)[O-])O2", "CLASS": "f"}
{"MOLECULE": "c1ccc2c(c1)sc1c3cnccc3ccc21", "CLASS": "f"}
{"MOLECULE": "O=C1N=C2SC=C(NC(=S)Nc3ccccc3)N2NC12c1ccccc1-c1ccccc12", "CLASS": "f"}
{"MOLECULE": "NC(=O)C(=O)NNc1ccccc1", "CLASS": "t"}
{"MOLECULE": "Cc1cccc(/C=N/NC(=S)N2CCCC2)n1", "CLASS": "t"}
{"MOLECULE": "CCCC(O)C1CC(C(C)C)CCC1C (configuration not stated)", "CLASS": "f"}
{"MOLECULE": "CCCCc1ccc(-n2c(C)c(COC(=O)NC)c(COC(=O)NC)c2C)cc1", "CLASS": "t"}
{"MOLECULE": "C=C1CC(CCCl)(c2ccccc2)OC1=O (configuration not stated)", "CLASS": "t"}
{"MOLECULE": "Cc1ccccc1N=Cc1cc(Cl)ccc1O", "CLASS": "f"}
{"MOLECULE": "Cc1ccccc1N=C(NO)c1ccccc1", "CLASS": "f"}
{"MOLECULE": "CC(=O)Nc1ccc2c(c1)-c1ccccc1C2=O", "CLASS": "f"}

====

Test: NCI Yeast Anticancer Drug Screen. Data for the mec2-1 strain (AID 157)
Conditions: S. cerevisiae mec2-1 strain, at 5.0 µM (retest, dose inferred, filed as 0.5), stronger effect = higher value
This is part of a sample that, as a whole, favours compounds with a hit. Of some 79,000 tested, about 15% had one in any assay.

{"MOLECULE": "COc1cc(C2c3cc4c(cc3OC(OC(C)=O)C2C)OCO4)cc(OC)c1OC (stereo unspecified)", "UNIT TEXT": "%", "growth inhibition": -4}
{"MOLECULE": "CN(C)c1ccc(N=Nc2ccncc2)cc1", "UNIT TEXT": "%", "growth inhibition": -41}
{"MOLECULE": "COc1ccc(C/C=N/Nc2ccc([N+](=O)[O-])cc2)cc1OC", "UNIT TEXT": "%", "growth inhibition": 16}
{"MOLECULE": "CCCCCCN(CCCCCC)CC(O)c1ccnc2ccc(OC)cc12 (stereo unspecified)", "UNIT TEXT": "%", "growth inhibition": -5}
{"MOLECULE": "CCOC(=O)[C@H]1Nc2ccc(OC)cc2C2c3ccccc3CC21 (stereo partly specified)", "UNIT TEXT": "%", "growth inhibition": -9}
{"MOLECULE": "Oc1ccc(O)c(Cc2ccccc2)c1", "UNIT TEXT": "%", "growth inhibition": -9}

====

Recorded growth inhibition values for a group of molecules are listed next.
Assay: NCI Yeast Anticancer Drug Screen. Data for the wt2 strain (AID 169);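 note: 0% = growth of vehicle-treated yeast cultures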
Conditions: S. cerevisiae wt2 strain growth inhibition; at 3.7 µM; stronger effect = higher value
The panel holds about 79,000 compounds, 15% with a hit somewhere; the sample as a whole holds those more often.
VALUE TYPE: growth inhibition (%)

{"MOLECULE": "O=C(CC(C(=O)O)N1CCOCC1)c1ccccc1 (stereo unspecified)", "VALUE TYPE": "growth inhibition", "OBSERVED MEASUREMENT": -3}
{"MOLECULE": "CN(C)c1ccc(N=Nc2ccncc2)cc1", "VALUE TYPE": "growth inhibition", "OBSERVED MEASUREMENT": 7}
{"MOLECULE": "Nc1ncc(-c2ccc(Br)cc2)s1", "VALUE TYPE": "growth inhibition", "OBSERVED MEASUREMENT": 8}
{"MOLECULE": "CC(=O)Nc1ccc(/C=C/[N+](=O)[O-])cc1", "VALUE TYPE": "growth inhibition", "OBSERVED MEASUREMENT": -3}
{"MOLECULE": "CC(=O)OC1CC2C(C)(C)C(=O)C=C[C@]2(C)C2CCC3(C)C(=CCC3[C@H](CO)C[C@H](O)C(=O)C(C)(C)O)[C@]12C (stereo partly specified)", "VALUE TYPE": "growth inhibition", "OBSERVED MEASUREMENT": -18}
{"MOLECULE": "S=C1SCN(C2CCCCC2)CN1C1CCCCC1", "VALUE TYPE": "growth inhibition", "OBSERVED MEASUREMENT": -35}
{"MOLECULE": "COc1cc(/C=N/Nc2nnc3c4ccccc4c4ncccc4c3n2)cc(OC)c1OC", "VALUE TYPE": "growth inhibition", "OBSERVED MEASUREMENT": -1}
{"MOLECULE": "O=c1ccc2ccccc2c2ccccc12", "VALUE TYPE": "growth inhibition", "OBSERVED MEASUREMENT": 2}
{"MOLECULE": "Cc1cc(O)c(C(C)C)cc1C1(c2cc(C(C)C)c(O)cc2C)OC(=O)c2ccccc21", "VALUE TYPE": "growth inhibition", "OBSERVED MEASUREMENT": -4}
{"MOLECULE": "COC(=O)CC1(O)C(/C=C/c2ccccc2)C(C(=O)OC)C(=O)C(C(=O)OC)C1C(=O)OC (stereo unspecified)", "VALUE TYPE": "growth inhibition", "OBSERVED MEASUREMENT": -2}
{"MOLECULE": "CC1CC(C)(C)CC(OCCN2CCCCC2)(c2ccccc2)C1 (stereo unspecified)", "VALUE TYPE": "growth inhibition", "OBSERVED MEASUREMENT": 5}
